Where these numbers come from: the supplement of paper PMC3545927

- assayed target: furin, P09958;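 further: purified furin at 1:10 enzyme:substrate in 50 mM HEPES pH 7.5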
- Sequence (P09958 whole entry): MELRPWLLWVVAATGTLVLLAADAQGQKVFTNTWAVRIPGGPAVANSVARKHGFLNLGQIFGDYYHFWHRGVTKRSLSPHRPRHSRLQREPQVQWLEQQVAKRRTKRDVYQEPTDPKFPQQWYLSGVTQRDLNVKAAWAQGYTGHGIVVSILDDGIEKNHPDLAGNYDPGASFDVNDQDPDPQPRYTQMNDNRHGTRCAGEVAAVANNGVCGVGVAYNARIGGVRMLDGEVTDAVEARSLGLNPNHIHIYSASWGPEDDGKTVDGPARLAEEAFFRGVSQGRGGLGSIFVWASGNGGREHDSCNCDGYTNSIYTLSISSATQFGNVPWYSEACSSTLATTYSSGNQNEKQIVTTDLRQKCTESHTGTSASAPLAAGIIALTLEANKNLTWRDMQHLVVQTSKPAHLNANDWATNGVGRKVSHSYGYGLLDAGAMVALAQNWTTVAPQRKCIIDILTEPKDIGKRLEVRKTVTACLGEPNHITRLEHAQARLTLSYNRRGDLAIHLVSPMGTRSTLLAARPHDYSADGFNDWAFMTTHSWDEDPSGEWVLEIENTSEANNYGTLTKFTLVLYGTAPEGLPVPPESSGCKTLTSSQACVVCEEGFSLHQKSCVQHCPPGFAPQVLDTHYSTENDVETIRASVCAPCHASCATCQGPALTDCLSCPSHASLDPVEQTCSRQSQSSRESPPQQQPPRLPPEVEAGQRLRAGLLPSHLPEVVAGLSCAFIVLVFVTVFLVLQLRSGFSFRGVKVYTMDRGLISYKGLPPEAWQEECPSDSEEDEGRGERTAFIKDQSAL
- procedure text: furin cleavage Z-score vs untreated control; higher = more cleavage, active = 3.5 or more, inactive = 1 or less, 8 variable residues between constant flanks
- condition context: 15 min
The other results are listed elsewhere or left out. How many sequences the whole screen found active is unknown.
Assign TRUE to entries whose furin cleavage Z-score meets or exceeds 0.6; assign FALSE to the rest.

sequence content | discrete label
CAWVVTSTWVAGNASASA [HC2148] | TRUE
CAAYALDTEVAGNASASA [HC564] | FALSE
CARGKRATTVAGNASASA [FS-3249] | TRUE
CAQLRRTTRSAGNASASA [FS-285] | TRUE
CATRTIASPKAGNASASA [HC704] | TRUE
CAVVCLSMSYAGNASASA [HC84] | FALSE
CARGKPGIYRAGNASASA [HC907] | TRUE
CASPLRQNRSAGNASASA [FS-299] | FALSE
CARGMRALGVAGNASASA [FS-1710] | FALSE
CAFCALARKMAGNASASA [HC621] | FALSE
CAMEECFQHLAGNASASA [HC26] | TRUE
CAMEEQSQHLAGNASASA [HC19] | TRUE
CAACQRQKKVAGNASASA [HC1393] | FALSE
CAEDVTSTWVAGNASASA [HC2171] | FALSE
CAMQECSQHLAGNASASA [HC1702] | FALSE
